Record form. Attribute: CC50 at 72 h. Fill in for each entry.
test: Cell viability assay; assay type: cell-based; conditions: African green monkey, Vero cells

So for Cc1ccc(C(=O)c2ccc(O)cc2O)cc1 [Compound 2] , the logged CC50 at 72 h turned out to be > 500 µM

# CC50 at 72 h (compound: Cc1cccc(C)c1C(=O)c1ccc(O)cc1O [Compound 3] ) is > 500 µM

* * *

assay: in vitro; type: cell-based; settings: African green monkey
Endpoint: viability at 72 h, 500 µM

viability at 72 h, 500 µM measured on CC1CCN(c2ncnc3ccccc23)CC1 = > 60%

* * *

Give measured IC50 for each item. Keep answers brief.
Molecular target: PRRSV 3CLSP (nsp4) (Porcine reproductive and respiratory syndrome virus, UniProt A1E8J1)
Sequence (A1E8J1 1780-1983): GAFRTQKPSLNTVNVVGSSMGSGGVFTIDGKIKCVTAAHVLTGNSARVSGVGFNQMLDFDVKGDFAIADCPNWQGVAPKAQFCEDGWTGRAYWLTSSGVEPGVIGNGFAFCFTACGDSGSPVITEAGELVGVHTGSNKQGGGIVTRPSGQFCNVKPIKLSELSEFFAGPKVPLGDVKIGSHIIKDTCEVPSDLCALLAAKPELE
A number alone suffices; assume µM.

The compound listed as CC1CCN(c2ncnc3ccccc23)CC1 has a reported IC50 of 173

For record Cc1ccc(C(=O)c2ccc(O)cc2O)cc1 the listed IC50 is 144

Data point: Cc1cccc(C)c1C(=O)c1ccc(O)cc1O ; IC50 = 116

Value of IC50 reported for the compound Cc1ccncc1 is 148
